# Tested Target: T1, human insulin receptor isoform B with C-terminal C9 tag (human, UniProt P06213 28-1382)
# T1 construct: membranes of stably transfected HEK293 cells; also called hIR-B; human IR-B
# Run Description: 125I-insulin competition SPA, hIR-B membranes, 0.1% HSA
Record form. Attribute: pKi. Fill in for each entry.
Remember, pKi is on a log scale: it is -log10 of the molar concentration.

Query block: Which pKi is reported for this binder? INS Analog 18 (other, single-chain insulin B-L2-A-L1-VHH fusion; L1 is (PGPA)8; also called Ex. 18) FVSQHLCGSHLVEALRLVCGERGFHYTPKTGGGGGGGIVEQCCHSICSLYQLENYCGPGPAPGPAPGPAPGPAPGPAPGPAPGPAPGPAEVQLLESGGGLVQPGGSLRLSCAASGRYIDETAVAWFRQAPGKEREFVAGIGGGVDITYYADSVKGRFTISRDNSKNTLYLQMNSLRPEDTAVYYCAARPGRPLITSKVADLYPYWGQGTLVTVSSPP
Result block: 6.62

Query block: Given the entry INS Analog 11 (other, single-chain insulin B-L2-A-L1-VHH fusion; also called Ex. 11) FVSQHLCGSHLVEALHLVCGERGFFYTPKTGGGGGGGIVEQCCHSICSLEQLENYCGPGPAPGPAPGPAPGPAPGPAPGPAPGPAPGPAEVQLLESGGGLVQPGGSLRLSCAASGRYIDETAVAWFRQAPGKEREFVAGIGGGVDITYYADSVKGRFTISRDNSKNTLYLQMNSLRPEDTAVYYCAARPGRPLITSKVADLYPYWGQGTLVTVSSPP , report its measured pKi.
Result block: 7.02

Query block: For the binder shown here, INS Analog 2 (other, single-chain insulin B-L2-A-L1-VHH fusion; also called Ex. 2) FVDQHLCGSHLVEALYLVCGERGFFYTPKTGGGGGGGIVEQCCTSICSLYQLENYCGPGPAPGPAPGPAPGPAPGPAPGPAPGPAPGPAEVQLLESGGGLVQPGGSLRLSCAASGRTVSSTAVAWFRQAPGKEREFVAGIGGSVDITYYADSVKGRFTISRDNSKNTLYLQMNSLRPEDTAVYYCAVRPGRPLITSRDANLYDYWGQGTLVTVSS , give the reported pKi.
Result block: 7.53

Query block: What measured pKi goes with INS Analog 29 (other, single-chain insulin B-L2-A-L1-VHH fusion; also called Ex. 29) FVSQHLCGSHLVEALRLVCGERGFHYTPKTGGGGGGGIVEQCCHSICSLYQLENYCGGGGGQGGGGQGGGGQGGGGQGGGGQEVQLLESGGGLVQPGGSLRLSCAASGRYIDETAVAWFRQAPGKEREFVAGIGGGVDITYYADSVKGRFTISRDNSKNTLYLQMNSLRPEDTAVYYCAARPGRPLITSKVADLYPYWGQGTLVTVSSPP ?
Result block: 7.42

Query block: Reported pKi, binder INS Analog 25 (other, single-chain insulin B-L2-A-L1-VHH fusion; also called Ex. 25) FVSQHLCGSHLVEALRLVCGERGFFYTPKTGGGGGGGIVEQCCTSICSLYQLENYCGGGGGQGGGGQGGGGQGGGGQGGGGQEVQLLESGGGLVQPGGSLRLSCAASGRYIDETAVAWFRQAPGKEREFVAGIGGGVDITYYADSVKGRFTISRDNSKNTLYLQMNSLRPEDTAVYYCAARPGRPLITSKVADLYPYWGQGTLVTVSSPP : ____
Result block: 6.55

Query block: Fill in: pKi of INS Analog 17 (other, single-chain insulin B-L2-A-L1-VHH fusion; also called Ex. 17) FVSQHLCGSHLVEALRLVCGERGFFYTPKTGGGGGGGIVEQCCHSICSLYQLENYCGPGPAPGPAPGPAPGPAPGPAPGPAPGPAPGPAEVQLLESGGGLVQPGGSLRLSCAASGRYIDETAVAWFRQAPGKEREFVAGIGGGVDITYYADSVKGRFTISRDNSKNTLYLQMNSLRPEDTAVYYCAARPGRPLITSKVADLYPYWGQGTLVTVSSPP is ___
Result block: 6.99

Query block: // lookup pKi for INS Analog 30 (other, single-chain insulin B-L2-A-L1-VHH fusion; also called Ex. 30) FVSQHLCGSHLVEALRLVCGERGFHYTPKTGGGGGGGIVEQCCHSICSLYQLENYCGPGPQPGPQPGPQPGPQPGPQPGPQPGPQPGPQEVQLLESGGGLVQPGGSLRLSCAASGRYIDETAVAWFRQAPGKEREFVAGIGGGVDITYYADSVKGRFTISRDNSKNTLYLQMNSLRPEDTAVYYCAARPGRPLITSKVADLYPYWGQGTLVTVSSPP
Result block: 7.61

FYI, the data here is from patent US20220378931A1.
